src = the supplement of paper PMC10567573

experiment: protein stability index of a GFP-peptide fusion (GPS, HEK-293T) (PSI 1-6); higher = more stable; conditions: treatment: MLN4924 1 uM, 8 h; c terminus: a fixed tail appended;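 note: 24-mer peptide tiles fused after GFP, lentivirally expressed, FACS-sorted into six equal bins by GFP/DsRed ratio, decoded by Illumina sequencing, PSI is the read-weighted mean bin number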
Binary classification by protein stability index, with 3 as an inclusive lower bound for YES; all other cases are NO.

[
  {
    "Query sequence": "KEEGTVNGASWHTVAGSLNDFSYL [CPXM2]",
    "Class name": "YES"
  },
  {
    "Query sequence": "NLPNLAAAYSSILSSLGENPQRQG [GCH1]",
    "Class name": "YES"
  },
  {
    "Query sequence": "NSISSDKEATVPCTEILTEKKDTI [MIA2]",
    "Class name": "YES"
  },
  {
    "Query sequence": "IYEFWENSSVWNSHLQTNYSKTFQ [NECAB1]",
    "Class name": "NO"
  },
  {
    "Query sequence": "LPQPLAAHAGAVHNGKIYISGGVH [KLHL14]",
    "Class name": "YES"
  },
  {
    "Query sequence": "ADEGSRNSRFQMLFTSFQEPPCEG [NETO1]",
    "Class name": "YES"
  },
  {
    "Query sequence": "AGLASGLLNQQSLKRSANQMGVSA [MED27]",
    "Class name": "YES"
  },
  {
    "Query sequence": "LSLEEELSRVKAAALSERGQAEEE [LRRC45]",
    "Class name": "YES"
  }
]

Task: Confirm if protein stability index reported for the sequence SMKHTATARFQRNHRLISEILSES [SMARCE1] is 3 or above.
Output: YES

Task: Textbook exercise: given the entry IQENQRNLYEEGRTAFLWRGNVVL [TRIM43] , state whether its protein stability index is greater than or equal to 3.
Output: NO

Task: Evaluate RREEEERRRIEEERLRLEQQKQQI [ACBD3] : protein stability index at minimum 3?
Output: YES

Task: Is the recorded value of protein stability index equal to or greater than 3 for this sequence? PKGSKGKEKDSPFKPKLYKGDRGL [RBBP5]
Output: YES

Task: # check: protein stability index of LTEQVWKVQDALQNQSDSLLALAG [SCARA5] is greater than or equal to 3
Output: YES

Task: Is reported protein stability index greater than or equal to 3 here: QLKIRKSNQIPTEVRSKAEEVVSF [FUNDC2]
Output: YES

Task: In plain terms: is recorded protein stability index at least 3 for EIRKKVLKIYNKREEDFPSLREYN [MNAT1] ?
Output: NO

Task: Reported protein stability index at or above 3? ETEARYSSQLAQMQCLISNVEAQL [KRT36]
Output: YES

Task: Decide: protein stability index of IIDSSLEDITYVLKPTFTKQQIAN [USP39] >= 3?
Output: NO

Task: hey, is protein stability index for this one >= 3? IELANIRDEVAFHTAKCEKLQKEK [MTUS2]
Output: YES

Task: # bool: protein stability index of EMSKDANFGLRLVVQRCSGQKWMI [GALNT9] >= 3
Output: NO

Task: Does LLSSSEEECKDRERPMYGRDSAYQ [EMD] have a reported protein stability index of at least 3?
Output: YES

Task: State whether the measured protein stability index reaches 3, counting equality as reaching it, for GFEYDGKINAWDLYYYMTQTEELK [NLN]
Output: NO

Task: Please tell me: is the sequence EPLVLYNQNLSNRPSFNRTPIPWL [MYOZ1] at or over 3 in terms of protein stability index?
Output: NO
